Quick reference for pIC50 among some compounds
# Target or test system: P70S6K (T412E mutant) (Homo sapiens (Human), UniProt P23443, T412E)
# Sequence (P23443 whole entry T412E): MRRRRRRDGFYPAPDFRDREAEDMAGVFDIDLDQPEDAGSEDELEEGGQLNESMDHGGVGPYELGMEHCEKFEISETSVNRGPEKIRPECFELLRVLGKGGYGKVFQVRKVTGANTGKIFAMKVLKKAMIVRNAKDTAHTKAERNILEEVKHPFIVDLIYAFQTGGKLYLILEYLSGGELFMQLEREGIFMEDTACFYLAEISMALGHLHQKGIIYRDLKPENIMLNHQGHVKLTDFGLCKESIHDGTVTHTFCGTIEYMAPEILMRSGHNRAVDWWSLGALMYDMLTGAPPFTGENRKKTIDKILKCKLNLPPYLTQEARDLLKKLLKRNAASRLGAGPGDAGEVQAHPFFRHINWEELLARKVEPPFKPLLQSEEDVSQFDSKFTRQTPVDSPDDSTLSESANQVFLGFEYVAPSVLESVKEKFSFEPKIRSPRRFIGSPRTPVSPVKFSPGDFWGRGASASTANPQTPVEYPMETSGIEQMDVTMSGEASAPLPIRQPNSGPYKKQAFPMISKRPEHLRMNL
# Assay protocol: P70S6K enzyme assay
# Assay type: biochemical
# Test conditions: read-out: IC50 p70S6K
pIC50: −log10 of the molar value.
Assay metric: pIC50

> print(dat)
                                 mol.smiles                     target.or.test.system  assay.metric  experimental.value
1  Cn1cc(-c2ccc(F)c(C(F)(F)F)c2)nc1C1CCN(c2ncnc(N)c2-c2ccc(N3CCOCC3)nc2)CC1  P70S6K (T412E mutant) (Homo sapiens (Human), UniProt P23443, T412E)         pIC50                6.72
2  NC(=O)c1c(N)ncnc1N1CCC(c2nc(-c3cccc(Cl)c3)cn2CCN2CCCC2)CC1  P70S6K (T412E mutant) (Homo sapiens (Human), UniProt P23443, T412E)         pIC50                8.12
3  CCN(CCn1cc(-c2ccc(F)c(C)c2)nc1C1CCN(c2ncnc(N)c2C(N)=O)CC1)C(C)C  P70S6K (T412E mutant) (Homo sapiens (Human), UniProt P23443, T412E)         pIC50                7.57
4  C=C(C)c1c(N)ncnc1N1CCC(c2nc(-c3ccc(F)c(C(F)(F)F)c3)cn2CCN(C)C)CC1  P70S6K (T412E mutant) (Homo sapiens (Human), UniProt P23443, T412E)         pIC50                8.30
5  CC(C)N(C)CCn1cc(-c2ccc(F)c(C(F)(F)F)c2)nc1C1CCN(c2ncnc(N)c2C#N)CC1  P70S6K (T412E mutant) (Homo sapiens (Human), UniProt P23443, T412E)         pIC50                8.66
6  CCc1c(N)ncnc1N1CCC(c2nc(-c3ccnc(C(F)(F)F)c3)cn2CCN2CCC2)CC1  P70S6K (T412E mutant) (Homo sapiens (Human), UniProt P23443, T412E)         pIC50                8.57
7  Nc1ncnc(N2CCC(c3nc(-c4ccnc(C(F)(F)F)c4)cn3CCNC3CC3)CC2)c1Cl  P70S6K (T412E mutant) (Homo sapiens (Human), UniProt P23443, T412E)         pIC50                8.55

---

# Target or test system: His-AKT (Full Length) (Homo sapiens (Human), UniProt P31749)
# Sequence (P31749 whole entry): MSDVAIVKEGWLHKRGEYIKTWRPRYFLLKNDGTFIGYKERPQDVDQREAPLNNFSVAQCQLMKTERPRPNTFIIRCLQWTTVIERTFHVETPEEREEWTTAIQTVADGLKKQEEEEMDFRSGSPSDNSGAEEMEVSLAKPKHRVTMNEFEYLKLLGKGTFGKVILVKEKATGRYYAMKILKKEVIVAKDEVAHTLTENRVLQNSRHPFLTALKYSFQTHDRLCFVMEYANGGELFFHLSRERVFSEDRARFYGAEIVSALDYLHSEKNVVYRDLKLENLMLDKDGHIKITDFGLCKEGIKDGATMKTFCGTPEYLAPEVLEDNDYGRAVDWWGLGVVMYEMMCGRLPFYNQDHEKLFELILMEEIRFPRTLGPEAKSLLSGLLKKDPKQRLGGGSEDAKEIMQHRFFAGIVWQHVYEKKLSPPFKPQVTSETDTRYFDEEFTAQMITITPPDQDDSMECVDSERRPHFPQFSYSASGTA
# Assay protocol: AKT enzyme assay
# Format: biochemical
# Test conditions: read-out: IC50 AKT
Assay metric: IC50 (nM)

> print(dat)
                                 mol.smiles  assay.metric  experimental.value
1  CCc1c(N)ncnc1N1CCC(c2nc(-c3ccc(C(F)(F)F)c(F)c3)cn2CCN2CCCC(F)(F)C2)CC1          IC50                1000
2  Cc1cc(-c2cn(CCN(C)C)c(C3CCN(c4ncnc(N)c4C(N)=O)CC3)n2)ccc1F          IC50                  32
3  NC(=O)c1c(N)ncnc1N1CCC(c2nc(-c3ccc(F)c(C(F)(F)F)c3)cn2CCN2CCC2)CC1          IC50                  14
4  CCc1c(N)ncnc1N1CCC(c2nc(-c3cccc(C(F)(F)F)c3)cn2CCN2CCCC2)CC1          IC50                 9.6
5  Cc1ccc(-c2c(N)ncnc2N2CCC(c3nc(-c4ccc(F)c(C(F)(F)F)c4)cn3C)CC2)cn1          IC50                1700
6  CN(C)CCn1cc(-c2ccc(F)c(C(F)(F)F)c2)nc1C1CCN(c2ncnc(N)c2Br)CC1          IC50                 9.3
7  CCOc1c(N)ncnc1N1CCC(c2nc(-c3ccc(F)c(C)c3)cn2CC2CNC2)CC1          IC50                 6.6

---

# Target or test system: His-AKT (Full Length) (Homo sapiens (Human), UniProt P31749)
# Assay protocol: AKT enzyme assay
# Assay type: biochemical
# Test conditions: read-out: IC50 AKT
pIC50: −log10 of the molar value.
Assay metric: pIC50

> print(dat)
                                 mol.smiles                     target.or.test.system  experimental.value
1  Nc1ncnc(N2CCC(c3nc(-c4ccc(F)c(C(F)(F)F)c4)cn3CCN3CCC3)CC2)c1Cl  His-AKT (Full Length) (Homo sapiens (Human), UniProt P31749)                9.00
2  CCc1c(N)ncnc1N1CCC(c2nc(-c3ccc(F)c(F)c3)cn2CCN2CCC2)CC1  His-AKT (Full Length) (Homo sapiens (Human), UniProt P31749)                7.62
3  N#Cc1c(N)ncnc1N1CCC(c2nc(-c3ccc(F)c(C(F)(F)F)c3)cn2CC2CNC2)CC1  His-AKT (Full Length) (Homo sapiens (Human), UniProt P31749)                7.19
4  CN(C)CCn1cc(-c2ccc(F)c(C(F)(F)F)c2)nc1C1CCN(c2ncnc(N)c2/C=C/C2CC2)CC1  His-AKT (Full Length) (Homo sapiens (Human), UniProt P31749)                7.37
5  Cc1cc(-c2cn(CCNC(C)C)c(C3CCN(c4ncnc(N)c4C#N)CC3)n2)ccc1F  His-AKT (Full Length) (Homo sapiens (Human), UniProt P31749)                8.54
6  NC(=O)c1c(N)ncnc1N1CCC(c2nc(-c3cn[nH]c3)cn2CCN2CCC2)CC1  His-AKT (Full Length) (Homo sapiens (Human), UniProt P31749)                5.66
7  NC(=O)c1c(N)ncnc1N1CCC(c2nc(-c3ccc(F)c(OC(F)F)c3)cn2CCN2CCC2)CC1  His-AKT (Full Length) (Homo sapiens (Human), UniProt P31749)                7.54

---

Quick reference for pIC50 among some compounds
# Target or test system: P70S6K (T412E mutant) (Homo sapiens (Human), UniProt P23443, T412E)
# Assay protocol: P70S6K enzyme assay
# Type: biochemical
# Test conditions: read-out: IC50 p70S6K
pIC50: −log10 of the molar value.
Assay metric: pIC50

> print(dat)
                                   compound  experimental.value
1  CCc1c(N)ncnc1N1CCC(c2nc(-c3cccc(C(F)(F)F)c3)cn2CCN2CCC2)CC1 [Compound 277]                8.49
2  CCc1c(N)ncnc1N1CCC(c2nc(-c3cccc(Cl)c3)cn2CCN2CCCC2)CC1 [Compound 274]                8.82
3  CCc1c(N)ncnc1N1CCC(c2nc(-c3ccc(C(F)(F)F)c(F)c3)cn2CCN2CCC(F)CC2)CC1 [Compound 249]                8.00
4  COC(=O)c1ccc(-c2c(N)ncnc2N2CCC(c3nc(-c4ccc(F)c(C(F)(F)F)c4)cn3CCN3CCCC3)CC2)cc1 [Compound 223]                7.68

---

# Target or test system: His-AKT (Full Length) (Homo sapiens (Human), UniProt P31749)
# Assay protocol: AKT enzyme assay
# Format: biochemical
# Test conditions: read-out: IC50 AKT
Quick reference for IC50 among some molecules
Assay metric: IC50 (µM)

> print(dat)
                                   molecule  experimental.value
1  CN(C)CCn1cc(-c2ccc(F)c(C(F)(F)F)c2)nc1C1CCN(c2ncnc(N)c2C2=CCCC2)CC1 [Compound 90]               0.031
2  CCc1c(N)ncnc1N1CCC(c2nc(-c3ccnc(C(C)C)c3)cn2CCN2CCC2)CC1 [Compound 179]              0.0042
3  Cn1cc(-c2ccc(F)c(C(F)(F)F)c2)nc1C1CCN(c2ncnc(N)c2CO)CC1 [Compound 36]                 1.1
4  Cc1cc(-c2cn(CCNCC3CC3)c(C3CCN(c4ncnc(N)c4C#N)CC3)n2)ccc1F [Compound 378]              0.0023

---

# Target or test system: P70S6K (T412E mutant) (Homo sapiens (Human), UniProt P23443, T412E)
# Assay protocol: P70S6K enzyme assay
# Format: biochemical
# Test conditions: read-out: IC50 p70S6K
Quick reference for IC50 among some compounds
Assay metric: IC50

> print(dat)
                                    compound                     target.or.test.system  assay.metric  experimental.value
 1  Cc1cc(-c2cn(CCNC3CCCC3)c(C3CCN(c4ncnc(N)c4C(N)=O)CC3)n2)ccc1F  P70S6K (T412E mutant) (Homo sapiens (Human), UniProt P23443, T412E)          IC50                4 nM
 2  Cc1cc(-c2cn(CCN3CCCC3)c(C3CCN(c4ncnc(N)c4C#N)CC3)n2)ccc1F  P70S6K (T412E mutant) (Homo sapiens (Human), UniProt P23443, T412E)          IC50              2.8 nM
 3  COCC(C)NCCn1cc(-c2ccc(F)c(C(F)(F)F)c2)nc1C1CCN(c2ncnc(N)c2C(N)=O)CC1 (stereo not drawn)  P70S6K (T412E mutant) (Homo sapiens (Human), UniProt P23443, T412E)          IC50               18 nM
 4  C=Cc1c(N)ncnc1N1CCC(c2nc(-c3ccc(F)c(C(F)(F)F)c3)cn2CCN2CCCC2)CC1  P70S6K (T412E mutant) (Homo sapiens (Human), UniProt P23443, T412E)          IC50              2.5 nM
 5  Cc1cc(-c2cn(CCN3CCC3)c(C3CCN(c4ncnc(N)c4C(N)=O)CC3)n2)ccc1F  P70S6K (T412E mutant) (Homo sapiens (Human), UniProt P23443, T412E)          IC50                2 nM
 6  CNCCn1cc(-c2ccnc(C(F)(F)F)c2)nc1C1CCN(c2ncnc(N)c2Cl)CC1  P70S6K (T412E mutant) (Homo sapiens (Human), UniProt P23443, T412E)          IC50                2 nM
 7  NC(=O)c1c(N)ncnc1N1CCC(c2nc(-c3ccc(F)c(C(F)(F)F)c3)cn2CCN2CCCCC2)CC1  P70S6K (T412E mutant) (Homo sapiens (Human), UniProt P23443, T412E)          IC50              3.5 nM
 8  CNCCn1cc(-c2ccnc(C(F)(F)F)c2)nc1C1CCN(c2ncnc(N)c2C#N)CC1  P70S6K (T412E mutant) (Homo sapiens (Human), UniProt P23443, T412E)          IC50              1.3 nM
 9  CNCCn1cc(-c2ccnc(C(F)(F)F)c2)nc1C1CCN(c2ncnc(N)c2C2C=NOC2)CC1 (stereo not drawn)  P70S6K (T412E mutant) (Homo sapiens (Human), UniProt P23443, T412E)          IC50              170 nM
10  CNc1ncnc(N2CCC(c3nc(-c4ccnc(C(F)(F)F)c4)cn3CCN3CCC3)CC2)c1Cl  P70S6K (T412E mutant) (Homo sapiens (Human), UniProt P23443, T412E)          IC50             2700 nM
11  Nc1ncnc(N2CCC(c3nc(-c4ccc(F)c(C(F)(F)F)c4)cn3CCN3CCCCC3)CC2)c1-c1ccccc1F  P70S6K (T412E mutant) (Homo sapiens (Human), UniProt P23443, T412E)          IC50              5.1 nM
12  CN(C)CCn1cc(-c2ccc(F)c(C(F)(F)F)c2)nc1C1CCN(c2ncnc(N)c2-c2ccc(F)cc2)CC1  P70S6K (T412E mutant) (Homo sapiens (Human), UniProt P23443, T412E)          IC50              7.3 nM
13  Nc1ncnc(N2CCC(c3nc(-c4ccc(F)c(C(F)(F)F)c4)cn3CCN3CCCCC3)CC2)c1-c1ccc(F)cc1  P70S6K (T412E mutant) (Homo sapiens (Human), UniProt P23443, T412E)          IC50               18 nM
14  Cc1cc(-c2cn(CCNC(C)C)c(C3CCN(c4ncnc(N)c4C#N)CC3)n2)ccc1F  P70S6K (T412E mutant) (Homo sapiens (Human), UniProt P23443, T412E)          IC50              1.3 nM
15  NC(=O)c1c(N)ncnc1N1CCC(c2nc(-c3ccc(F)c(C(F)(F)F)c3)cn2CC2CCCN2)CC1 (stereo not drawn)  P70S6K (T412E mutant) (Homo sapiens (Human), UniProt P23443, T412E)          IC50               10 nM
